meta.source: paper PMC4085075

target: human estrogen receptor alpha (hERα) (Homo sapiens, UniProt P03372); construct: host or cells: human U2-OS osteosarcoma cells; assay: ERα CALUX reporter gene assay in U2-OS cells; type: cell-based; settings: antagonist mode, spiked with 8 pmol/l 17β-estradiol; footnote a: inhibition of U2-OS cell growth at higher concentrations; read-out: ER CALUX Antiestrogen activity EC50
Sequence (P03372 whole entry): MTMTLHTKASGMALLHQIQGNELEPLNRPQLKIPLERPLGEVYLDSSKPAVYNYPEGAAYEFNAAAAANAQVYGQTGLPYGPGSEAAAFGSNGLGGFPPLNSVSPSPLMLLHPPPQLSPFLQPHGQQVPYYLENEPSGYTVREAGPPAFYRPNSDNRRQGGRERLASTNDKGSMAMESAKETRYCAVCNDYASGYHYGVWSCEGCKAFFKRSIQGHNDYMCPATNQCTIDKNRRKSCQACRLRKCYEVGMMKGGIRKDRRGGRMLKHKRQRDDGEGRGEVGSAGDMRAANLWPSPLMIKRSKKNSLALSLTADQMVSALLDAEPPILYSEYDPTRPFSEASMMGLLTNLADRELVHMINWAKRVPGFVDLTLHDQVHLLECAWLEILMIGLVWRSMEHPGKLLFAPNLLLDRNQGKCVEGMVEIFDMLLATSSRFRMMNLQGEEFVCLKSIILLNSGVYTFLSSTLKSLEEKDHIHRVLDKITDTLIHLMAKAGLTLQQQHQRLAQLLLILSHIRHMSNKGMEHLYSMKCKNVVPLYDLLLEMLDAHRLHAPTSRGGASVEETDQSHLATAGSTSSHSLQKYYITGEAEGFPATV
pEC50: −log10 of the molar value.
TEST_READOUT: pEC50

Answered cases to consult:
COMPOUND	pEC50
c1ccc(CCCc2ccccc2)cc1	< 3.30
CC(C)(C)c1ccc(O)c(C(C)(C)C)c1	< 4.70

Next, consider the following compound.
[in] Return reported pEC50; argument: CCCCC(CC)COC(=O)CCCCC(=O)OCC(CC)CCCC (stereo not drawn) [diethylhexyladipate (DEHA), diethylhexyladipate]
[out] < 3.30
